# PROTOCOL TEXT: chemical genetic growth profiling, strain panel (AID 1159580);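 note: tested at 20 µM; growth read once vehicle control cultures reached saturation at 30 °C; 1 = growth at the plate median or of vehicle wells; lower values mean less growth of the strain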
# REPORTED CONDITIONS: S. cerevisiae deletion strains, growth OD, locus YNL248C, strain rpa49
Screen size: about 5,500 compounds; about 2,000 (36%) were called active. Not shown: some 18% with an inconclusive outcome. Cut-off read from the data, not from the text of the source: active = normalized growth mostly below about 0.91 (no sharp cut-off); inconclusive = no clear call, values can overlap the other calls; inactive = mostly above about 0.92. This is one part of the list.
The categories you may choose from are YES = active, NO = inactive

// known answers, use as guide
{"COMPOUND": "CC(=O)OCC(=O)[C@@]12OC(C)(C)O[C@@H]1CC1C3C[C@H](F)C4=CC(=O)C=C[C@]4(C)[C@@]3(F)[C@@H](O)C[C@@]12C (some centres undefined)", "CLASS ASSIGNMENT": "NO"}
{"COMPOUND": "CCCCC(CC)CN=C(N)NC(N)=NCCCCCCN=C(N)NC(N)=NCC(CC)CCCC (centres undefined)", "CLASS ASSIGNMENT": "YES"}
{"COMPOUND": "CC[C@@H]1[C@@H](O)N2C3C[C@H]1C1C(O)[C@]4(C[C@@H]12)c1ccccc1N(C)[C@@H]34 (some centres undefined)", "CLASS ASSIGNMENT": "NO"}
{"COMPOUND": "CC[C@]12CCCN3CCc4c(n(c5ccccc45)[C@](O)(C(=O)OC)C1)[C@@H]32", "CLASS ASSIGNMENT": "NO"}
{"COMPOUND": "CCOC(=O)c1ccc(N)cc1", "CLASS ASSIGNMENT": "NO"}

Can you look up the reported call for COc1cc2c(cc1O)CC1c3c(cc(O)c(OC)c3-2)CCN1C (centres undefined) for me?
NO

In this assay, the call recorded for `CCOC(=O)C1=C[C@]2(CC)CCCN3CCc4c(n1c1ccccc41)[C@@H]32` was what?
NO

Outcome? CC1(C)O[C@@H]2CC3C4CCC5=CC(=O)C=C[C@]5(C)C4[C@@H](O)C[C@]3(C)[C@]2(C(=O)CO)O1 (some centres undefined)
NO

Could you please tell me the result logged for CN1CCc2cccc3c2C1Cc1ccc(O)c(O)c1-3 (centres undefined) in this assay?
YES

###

# PROTOCOL TEXT: chemical genetic growth profiling, strain panel (AID 1159580)
# REPORTED CONDITIONS: S. cerevisiae deletion strains, growth OD, locus YJL134W, strain LCB3, active compounds read low
The whole screen tested about 5,500 compounds, of which about 2,000 (36%) were called active. Another 18% or so got no clear call; they are omitted. The list shows a part of the results.
normalized growth reference
No unit in the answer, only the number.

Would you please look over these solved cases?
{"COMPOUND": "CC12CCCC(O)(C1)C1CC(C)(C)C1CC2 (stereo unspecified)", "normalized growth": 0.995}
{"COMPOUND": "COc1cc(C(=O)O)cc(OC)c1O", "normalized growth": 0.994}
{"COMPOUND": "COc1ccc(C[C@H](N)C(=O)N[C@@H]2[C@@H](CO)OC(n3cnc4c(N(C)C)ncnc43)[C@@H]2O)cc1 (stereo partly specified)", "normalized growth": 1}
{"COMPOUND": "O=C(O)c1cc(=O)c(O)c2c(O)c(O)ccc2c1", "normalized growth": 1}
{"COMPOUND": "CC1(C)CC2C1CCC1(C)OC1CCC2(C)O (stereo unspecified)", "normalized growth": 1.02}

Now for a further compound.
normalized growth recorded for this compound, C=CCN1CC[C@]23c4c5ccc(O)c4OC2C(=O)CC[C@@]3(O)[C@H]1C5 (stereo partly specified) , is 1.01

###

# PROTOCOL TEXT: chemical genetic growth profiling, strain panel (AID 1159580)
# REPORTED CONDITIONS: S. cerevisiae deletion strains, growth OD, locus YMR125W, strain sto1, active compounds read low
About 2,000 (36%) of roughly 5,500 compounds were called active. Inconclusive results (about 18%) are left out. The list shows a part of the results.
We label by threshold. Values of normalized growth strictly beneath 1 are 1. Values of 1 and up are -1.

Would you please look over these solved cases?
{"MOLECULE": "Nc1nc2c(c(=O)[nH]1)N(C=O)C(CNc1ccc(C(=O)N[C@@H](CCC(=O)O)C(=O)O)cc1)CN2 (stereo partly specified)", "CLASS ASSIGNMENT": 1}
{"MOLECULE": "Nc1nc(N)c2nc(CNc3ccc(C(=O)NC(CCC(=O)O)C(=O)O)cc3)cnc2n1 (stereo unspecified)", "CLASS ASSIGNMENT": 1}
{"MOLECULE": "CC[C@@H]1[C@@H](O)N2C3C[C@H]1C1C(O)[C@]4(C[C@@H]12)c1ccccc1N(C)[C@@H]34 (stereo partly specified)", "CLASS ASSIGNMENT": -1}
{"MOLECULE": "Cc1cccc(CN2CCN(C(c3ccccc3)c3ccc(Cl)cc3)CC2)c1 (stereo unspecified)", "CLASS ASSIGNMENT": 1}
{"MOLECULE": "CN(Cc1cnc2nc(N)nc(N)c2n1)c1ccc(C(=O)NC(CCC(=O)O)C(=O)O)cc1 (stereo unspecified)", "CLASS ASSIGNMENT": 1}

hey, is normalized growth for `COc1cc(/C=C/C(=O)O)cc(OC)c1OC` lower than 1 or not?
1

###

This section presents compounds with their documented normalized growth values.
# PROTOCOL TEXT: chemical genetic growth profiling, strain panel (AID 1159580);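 note: tested at 20 µM; growth read once vehicle control cultures reached saturation at 30 °C; 1 = growth at the plate median or of vehicle wells; lower values mean less growth of the strain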
# REPORTED CONDITIONS: S. cerevisiae deletion strains, growth OD, locus YFL009W, strain cdc4, active compounds read low
About 2,000 (36%) of roughly 5,500 compounds were called active. Inconclusive results (about 18%) are left out. Some of the results follow.
Output: the number by itself.

Worked cases, answers included:
{"COMPOUND": "CCCCCCCC1CCC/C1=N/OC(=O)c1cccs1 (stereo not given)", "normalized growth": 0.992}
{"COMPOUND": "CCCCCc1ccc(S(=O)(=O)Nc2ccc3c(c2)C(=O)OC3)cc1", "normalized growth": 0.981}
{"COMPOUND": "O=C(Nc1cccc(C(F)(F)F)c1)Oc1ccc(F)cc1Cl", "normalized growth": 0.974}
{"COMPOUND": "O=C(CCSc1cccs1)Nc1cccc(C(F)(F)F)c1", "normalized growth": 0.945}
{"COMPOUND": "COc1cc(N=Cc2cc(Cl)cc(Cl)c2OS(=O)(=O)c2ccc(C)cc2)c(OC)cc1Cl", "normalized growth": 0.926}

Note to self: normalized growth recorded for `COc1cc(C(=O)Oc2c(Cl)cc(Cl)cc2C=Nc2cccc(C(F)(F)F)c2)cc(OC)c1OC` was 0.957

normalized growth reported for this compound `COc1cc(C(=O)Oc2c(Cl)cc(Cl)cc2C=Nc2cccc([N+](=O)[O-])c2)cc(OC)c1OC` : 0.958

###

# PROTOCOL TEXT: chemical genetic growth profiling, strain panel (AID 1159580);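 note: tested at 20 µM; growth read once vehicle control cultures reached saturation at 30 °C; 1 = growth at the plate median or of vehicle wells; lower values mean less growth of the strain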
# REPORTED CONDITIONS: S. cerevisiae deletion strains, growth OD, locus YER155C, strain BEM2, active compounds read low
Screen size: about 5,500 compounds; about 2,000 (36%) were called active. Roughly 18% stayed inconclusive and do not appear here. Some of the results follow.
OBSERVED PROPERTY: normalized growth
Response field accepts a number only; no unit should be typed.

{"MOLECULE": "C/C=C/c1ccc(OC)cc1", "READING": 1.01}
{"MOLECULE": "NCc1ccc(S(N)(=O)=O)cc1", "READING": 0.984}
{"MOLECULE": "COc1ccc(/C=C/c2cc(O)cc(O[C@@H]3O[C@H](CO)[C@@H](O)[C@H](O)[C@H]3O)c2)cc1O", "READING": 0.995}
{"MOLECULE": "CC1(C)CC2C1CCC1(C)OC2(C)CCC1O (configuration not stated)", "READING": 0.996}
{"MOLECULE": "CC12CCCC(O)(C1)C1CC(C)(C)C1CC2 (configuration not stated)", "READING": 0.994}

GET /value?item= `Cc1ccc(C(C)C)cc2c(C)ccc1-2` &field=normalized growth returns 1.01

Query CCN(CC)CCOC(=O)C(Cc1cccc2ccccc12)CC1CCCO1 (configuration not stated) yields normalized growth of 1

// `COc1ccc(/C=C/C(=O)O)cc1OC` : normalized growth value = 1.01

# normalized growth (molecule: `COP(=S)(OC)Oc1ccc(SC)c(C)c1` ) is 1.02

Memo: CC1(C)C2CC(=O)O[C@@]3(C)C4=CC(=O)O[C@@H](c5ccoc5)[C@]4(C)CCC3[C@@]2(C)C=C[C@H]1O (some centres not stated) , reported normalized growth: 1.01

Lookup result for `COc1cc(/C=C/C(=O)O)ccc1O` ; measured normalized growth: 1

Record `NC(=O)c1cnccn1` , field normalized growth: 1.01

###

Form field: normalized growth (one value per entry).
# PROTOCOL TEXT: chemical genetic growth profiling, strain panel (AID 1159580);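 note: tested at 20 µM; growth read once vehicle control cultures reached saturation at 30 °C; 1 = growth at the plate median or of vehicle wells; lower values mean less growth of the strain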
# REPORTED CONDITIONS: S. cerevisiae deletion strains, growth OD, locus YOR069W, strain VPS5, active compounds read low
The whole screen tested about 5,500 compounds, of which about 2,000 (36%) were called active. Not shown: some 18% with an inconclusive outcome. The list shows a part of the results.
Format: numeric value only, no unit, no commentary.

Would you please look over these solved cases?
{"MOLECULE": "CC(=O)OC/C=C(C)/C=C/C=C(C)/C=C/C1=C(C)CCCC1(C)C", "normalized growth": 1.02}
{"MOLECULE": "COc1ccc(C[C@H](N)C(=O)N[C@@H]2[C@@H](CO)OC(n3cnc4c(N(C)C)ncnc43)[C@@H]2O)cc1 (stereo not given in full)", "normalized growth": 0.996}
{"MOLECULE": "COc1cc2c3cc1Oc1cc(ccc1O)OC1c4c(cc(OC)c(O)c4Oc4ccc(cc4)CC3N(C)CC2)CCN1C (stereo not given)", "normalized growth": 0.991}
{"MOLECULE": "NCc1ccc(S(N)(=O)=O)cc1", "normalized growth": 0.99}

Value of measured normalized growth for the entry CC1(C)CC2C1CCC1(C)OC2(C)CCC1O (stereo not given) : 1

Documented normalized growth of `O=C1O[C@@H](CO)[C@H](O)[C@@H](O)[C@@H]1O` : 1.01

Per the record, `CC[C@]12CCCN3CCc4c(n(c5ccccc45)C(=O)C1)[C@@H]32` has normalized growth of 0.987

meta.source: PubChem BioAssay AID1159580
